From: the supplement of paper PMC6755084

B1: F1*; the commonest letter at each place (parent)
chain: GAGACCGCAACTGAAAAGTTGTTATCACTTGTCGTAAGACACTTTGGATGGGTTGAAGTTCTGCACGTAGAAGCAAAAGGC

# Variants of: B1
# test_method_notes: fraction ligated after 30 min (ligated reads / total reads); higher = more ligase activity
# test_conditions: with F1*sub RNA substrate (template-directed ligation), 42 °C
readout_type: fraction ligated

- input_sequence: "GAGACCGCAACTGAAAAGTTGTTATCACTAGTCGTATGACACTTTGGATGGGTTGAAGTTCTGCACGTAGAAGCAAAAGGC"
  readout_type: "fraction ligated"
  value_measured: 0.832
- input_sequence: "GAGACCGCAACTGAAAAGTTGTTATCACTTGTCGTAAGACACTTTGGACGGGTTTAAGTTCTGCACGTAGAAGCAAAAGGC"
  readout_type: "fraction ligated"
  value_measured: 0.091
- input_sequence: "GAGACCGCAACTGAAAAGTTGTTATCACTTGTCGTAAGACCCTTTGGCTGGGTTGAAGTTCTGCACGTAGAAGCAAAAGGC"
  readout_type: "fraction ligated"
  value_measured: 0.571
- input_sequence: "GAGACCGCAACTGAAAAGTTGTTATCACTTGTCGTAAGACACTATGGATGGGTTAAAGTTCTGCACGTAGAAGCAAAAGGC"
  readout_type: "fraction ligated"
  value_measured: 0.827
- input_sequence: "GAGACCGCAACTGAAAAGTTGTTATCACTTGTAGTAAGTCACTTTGGATGGGTTGAAGTTCTGCACGTAGAAGCAAAAGGC"
  readout_type: "fraction ligated"
  value_measured: 0.852
- input_sequence: "GAGACCGCAACTGAAAAGTTGTTATCACTTGTCATAAGACACTATGGATGGGTTGAAGTTCTGCACGTAGAAGCAAAAGGC"
  readout_type: "fraction ligated"
  value_measured: 0.842
- input_sequence: "GAGACCGCAACTGAAAAGTTGTTATCACTTGTCGTAAGGCACTGTGGATGGGTTGAAGTTCTGCACGTAGAAGCAAAAGGC"
  readout_type: "fraction ligated"
  value_measured: 0.836
- input_sequence: "GAGACCGCAACTGAAAAGTTGTTATCACTTGTCGTAAGACACTTTGGCTCGGTTGAAGTTCTGCACGTAGAAGCAAAAGGC"
  readout_type: "fraction ligated"
  value_measured: 0.17
- input_sequence: "GAGACCGCAACTGAAAAGTTGTTATCTCTTGTCGTAACACACTTTGGATGGGTTGAAGTTCTGCACGTAGAAGCAAAAGGC"
  readout_type: "fraction ligated"
  value_measured: 0.784
- input_sequence: "GAGACCGCAACTGAAAAGTTGTTATCACATGTCGTAGGACACTTTGGATGGGTTGAAGTTCTGCACGTAGAAGCAAAAGGC"
  readout_type: "fraction ligated"
  value_measured: 0.839
- input_sequence: "GAGACCGCAACTGAAAAGTTGTTATAACTTGTCGTAAGACACTTTAGATGGGTTGAAGTTCTGCACGTAGAAGCAAAAGGC"
  readout_type: "fraction ligated"
  value_measured: 0.73
- input_sequence: "GAGACCGCAACTGAAAAGTTGTTATCACTTGTCGTAAAACACTTTGGATGGGTTTAAGTTCTGCACGTAGAAGCAAAAGGC"
  readout_type: "fraction ligated"
  value_measured: 0.811
- input_sequence: "GAGACCGCAACTGAAAAGTTGTTATCACTTGTCCTAAGACACTTCGGATGGGTTGAAGTTCTGCACGTAGAAGCAAAAGGC"
  readout_type: "fraction ligated"
  value_measured: 0.733
- input_sequence: "GAGACCGCAACTGAAAAGTTGTTATCTCTTGTCCTAAGACACTTTGGATGGGTTGAAGTTCTGCACGTAGAAGCAAAAGGC"
  readout_type: "fraction ligated"
  value_measured: 0.795
- input_sequence: "GAGACCGCAACTGAAAAGTTGTTATCACTTGTCGTAAGGCACATTGGATGGGTTGAAGTTCTGCACGTAGAAGCAAAAGGC"
  readout_type: "fraction ligated"
  value_measured: 0.838
- input_sequence: "GAGACCGCAACTGAAAAGTTGTTATCACTTGACGTAAGCCACTTTGGATGGGTTGAAGTTCTGCACGTAGAAGCAAAAGGC"
  readout_type: "fraction ligated"
  value_measured: 0.837
- input_sequence: "GAGACCGCAACTGAAAAGTTGTAATCACTTGTCGTAAGACACTGTGGATGGGTTGAAGTTCTGCACGTAGAAGCAAAAGGC"
  readout_type: "fraction ligated"
  value_measured: 0.801
- input_sequence: "GAGACCGCAACTGAAAAGTTGTTATCACGTGTCTTAAGACACTTTGGATGGGTTGAAGTTCTGCACGTAGAAGCAAAAGGC"
  readout_type: "fraction ligated"
  value_measured: 0.83
- input_sequence: "GAGACCGCAACTGAAAAGTTGTTACCACTTGTCGTAAGACACTTTAGATGGGTTGAAGTTCTGCACGTAGAAGCAAAAGGC"
  readout_type: "fraction ligated"
  value_measured: 0.71
- input_sequence: "GAGACCGCAACTGAAAAGTTGTTATCACTTGTGGTAAGACACTTTGGGTGGGTTGAAGTTCTGCACGTAGAAGCAAAAGGC"
  readout_type: "fraction ligated"
  value_measured: 0.793
- input_sequence: "GAGACCGCAACTGAAAAGTTGTTATCAGTTGTCGTAAGACACTTTGGATGGGTTAAAGTTCTGCACGTAGAAGCAAAAGGC"
  readout_type: "fraction ligated"
  value_measured: 0.779
- input_sequence: "GAGACCGCAACTGAAAAGTTGTTATCACTTCTCGTAAGACACTTGGGATGGGTTGAAGTTCTGCACGTAGAAGCAAAAGGC"
  readout_type: "fraction ligated"
  value_measured: 0.0355
